Tick yes (1) if logP is 4 or greater. Tick no (0) if logP is less than 4.

# Compound, Category
rows = [
    ("CC=C(C)C1(C)CC(=O)C(C(CCC)=NOCC)C(=O)O1 (centres undefined)", "no (0)"),
    ("CCCC(=NOCC)C1C(=O)CC2(CCSCC2)OC1=O (centres undefined)", "no (0)"),
    ("CCCC(=NOCC)C1C(=O)CC2(CCCc3ccccc32)OC1=O (centres undefined)", "yes (1)"),
    ("CCCC(=NOCC)C1C(=O)CC2(CCC(C)C2)OC1=O (centres undefined)", "no (0)"),
    ("CCCC(=NOCC)C1C(=O)CC2(CCCCC2)OC1=O (centres undefined)", "no (0)"),
    ("CCCC(=NOCC)C1C(=O)CC2(CCC(CC)CC2)OC1=O (centres undefined)", "yes (1)"),
    ("CCCC(=NOCC)C1C(=O)CC2(CCC(C(C)(C)C)CC2)OC1=O (centres undefined)", "yes (1)"),
    ("CCCC(=NOCC)C1C(=O)CC2(CCCC2)OC1=O (centres undefined)", "no (0)"),
    ("CCCC(=NOCC)C1C(=O)CC(c2ccccc2)(c2ccccc2)OC1=O (centres undefined)", "yes (1)"),
    ("CCCC(=NOCC)C1C(=O)CC2(C=CCCC2)OC1=O (centres undefined)", "no (0)"),
    ("CCCC(=NOCC)C1C(=O)CC2(CC(C)CC(C)C2)OC1=O (centres undefined)", "yes (1)"),
    ("CCCC(=NOCC)C1C(=O)CC(C)(C2CC2)OC1=O (centres undefined)", "no (0)"),
]
